# assayed-target: hCB1 receptor (Homo sapiens, UniProt P21554)
# Sequence (P21554 whole entry): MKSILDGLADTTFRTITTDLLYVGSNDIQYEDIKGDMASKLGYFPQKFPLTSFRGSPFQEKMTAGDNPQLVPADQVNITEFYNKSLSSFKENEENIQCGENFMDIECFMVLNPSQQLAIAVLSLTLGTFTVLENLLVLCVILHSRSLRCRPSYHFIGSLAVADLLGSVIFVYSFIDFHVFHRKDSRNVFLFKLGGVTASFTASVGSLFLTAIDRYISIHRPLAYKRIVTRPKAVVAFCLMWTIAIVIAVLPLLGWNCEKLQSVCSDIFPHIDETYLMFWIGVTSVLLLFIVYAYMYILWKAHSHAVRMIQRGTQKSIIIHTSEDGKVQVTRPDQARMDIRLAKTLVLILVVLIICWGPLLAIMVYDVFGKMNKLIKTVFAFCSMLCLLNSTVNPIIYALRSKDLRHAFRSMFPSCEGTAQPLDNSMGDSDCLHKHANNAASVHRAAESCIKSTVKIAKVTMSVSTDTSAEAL
# run-description: Agonist-stimulated [35S]GTPγS binding, hCB1 HEK293 membranes
endpoint: pEC50
The quantity pEC50 is defined as the negative base-10 logarithm of the molar concentration.

Worked examples, 5 molecules total:
molecule	pEC50
COC(=O)C(NC(=O)c1cn(Cc2ccc(F)cc2)c2ccccc12)C(C)C (centres unmarked)	7.22
CCOC(=O)C(NC(=O)c1nn(CCCCCF)c2ccccc12)C(C)(C)C (centres unmarked)	8.80
CCCCn1nc(C(=O)N[C@@H](Cc2ccccc2)C(N)=O)c2ccccc21	6.46
COC(=O)[C@@H](NC(=O)c1cn(CCCCCF)c2ccccc12)C(C)(C)C	8.29
CC1(C)C(C(=O)c2cn(Cc3ccc(F)cc3)c3ccccc23)C1(C)C	7.04

Ask | For the molecule shown here, COC(=O)[C@@H](NC(=O)c1cn(CCCCCF)c2ccccc12)C(C)C , give the reported pEC50.
Reply | 7.57

Ask | For the molecule shown here, C=CCCCn1nc(C(=O)NC(C(=O)OC)C(C)(C)C)c2ccccc21 (centres unmarked) , give the reported pEC50.
Reply | 8.48

Ask | For the molecule shown here, C=CCCCn1cc(C(=O)NC(C(=O)OC)C(C)C)c2ccccc21 (centres unmarked) , give the reported pEC50.
Reply | 7.22

###

# assayed-target: hCB2 receptor (Homo sapiens, UniProt P34972)
# Sequence (P34972 whole entry): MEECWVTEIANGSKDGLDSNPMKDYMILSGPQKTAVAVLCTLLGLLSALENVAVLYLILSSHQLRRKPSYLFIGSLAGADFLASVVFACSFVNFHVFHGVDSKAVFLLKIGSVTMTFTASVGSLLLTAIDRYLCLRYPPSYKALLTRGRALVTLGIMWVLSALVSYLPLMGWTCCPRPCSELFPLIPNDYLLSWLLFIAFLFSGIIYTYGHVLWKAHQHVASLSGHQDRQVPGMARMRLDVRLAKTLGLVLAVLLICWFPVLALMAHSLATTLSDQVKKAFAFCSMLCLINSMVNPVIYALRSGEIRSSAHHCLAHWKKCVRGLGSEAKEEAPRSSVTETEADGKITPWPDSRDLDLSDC
# run-description: Agonist-stimulated [35S]GTPγS binding, hCB2 HEK293 membranes
# experimental-setup: [35S]GTPγS Turnover CB2 pEC50, pEC50 ± SEM
Listed here are compounds together with their documented EC50.
The response must be a number in nM with no trailing unit.

compound	assayed-target	result-units	EC50
COC(=O)C(NC(=O)c1cn(Cc2ccc(F)cc2)c2ccccc12)C(C)C (centres unmarked) [MMB-FUBICA]	hCB2 receptor (Homo sapiens, UniProt P34972)	nM	22.4

Okay, next one:
Ask | For the compound shown here, CCOC(=O)C(NC(=O)c1nn(CCCCCF)c2ccccc12)C(C)(C)C (centres unmarked) [5F-EDMB-PINACA] , give the reported EC50.
Reply | 0.437

###

# assayed-target: hCB1 receptor (Homo sapiens)
# run-description: [3H]CP55,940 competition binding at hCB1 in HEK293 cell membranes
# experimental-setup: read-out: CB1 Ki; [3H]CP55,940 displacement, value in parenthesis
endpoint: Ki (nM)
The response must be a number in nM with no trailing unit.

Ask | For the molecule shown here, O=C(NC12CC3CC(CC(C3)C1)C2)c1nn(Cc2ccc(F)cc2)c2ccccc12 [FUB-AKB48] , give the reported Ki.
Reply | 1.3

###

# assayed-target: hCB2 receptor (Homo sapiens)
# run-description: Agonist-stimulated [35S]GTPγS binding, hCB2 HEK293 membranes
Listed here are compounds together with their documented [35S]GTPγS Turnover CB2 Emax.

compound	assayed-target	[35S]GTPγS Turnover CB2 Emax
COC(=O)[C@@H](NC(=O)c1cn(CCCCCF)c2ccccc12)C(C)C	hCB2 receptor (Homo sapiens)	77.8 ± 13.3 3 % stimulation over basal
CCCCn1nc(C(=O)N[C@@H](Cc2ccccc2)C(N)=O)c2ccccc21	hCB2 receptor (Homo sapiens)	83.2 ± 2.72 3 % stimulation over basal
C=CCCCn1cc(C(=O)NC(C(=O)OC)C(C)C)c2ccccc21 (stereo not drawn)	hCB2 receptor (Homo sapiens)	77.6 ± 7.17 5 % stimulation over basal
CCOC(=O)C(NC(=O)c1nn(CCCCCF)c2ccccc12)C(C)(C)C (stereo not drawn)	hCB2 receptor (Homo sapiens)	161 ± 8.36 3 % stimulation over basal
O=C(NC12CC3CC(CC(C3)C1)C2)c1nn(Cc2ccc(F)cc2)c2ccccc12	hCB2 receptor (Homo sapiens)	131 ± 16.5 4 % stimulation over basal

Ask | For the compound shown here, COC(=O)[C@@H](NC(=O)c1cn(CCCCCF)c2ccccc12)C(C)(C)C , give the reported [35S]GTPγS Turnover CB2 Emax.
Reply | 189 ± 25.2 3 % stimulation over basal

Ask | For the compound shown here, CC1(C)C(C(=O)c2cn(Cc3ccc(F)cc3)c3ccccc23)C1(C)C , give the reported [35S]GTPγS Turnover CB2 Emax.
Reply | 194 ± 8.45 3 % stimulation over basal

Ask | For the compound shown here, C=CCCCn1nc(C(=O)NC(C(=O)OC)C(C)(C)C)c2ccccc21 (stereo not drawn) , give the reported [35S]GTPγS Turnover CB2 Emax.
Reply | 63.6 ± 9.95 3 % stimulation over basal

Ask | For the compound shown here, COC(=O)C(NC(=O)c1cn(Cc2ccc(F)cc2)c2ccccc12)C(C)C (stereo not drawn) , give the reported [35S]GTPγS Turnover CB2 Emax.
Reply | 52.1 ± 6.73 3 % stimulation over basal

###

# assayed-target: hCB1 receptor (Homo sapiens)
# run-description: Agonist-stimulated [35S]GTPγS binding, hCB1 HEK293 membranes
endpoint: [35S]GTPγS Turnover CB1 Emax

compound	[35S]GTPγS Turnover CB1 Emax
C=CCCCn1nc(C(=O)NC(C(=O)OC)C(C)(C)C)c2ccccc21 (stereo not drawn)	304 ± 42.8 ^‡ 3 % stimulation over basal
C=CCCCn1cc(C(=O)NC(C(=O)OC)C(C)C)c2ccccc21 (stereo not drawn)	298 ± 31.9 ^‡ 4 % stimulation over basal
O=C(NC12CC3CC(CC(C3)C1)C2)c1nn(Cc2ccc(F)cc2)c2ccccc12	368 ± 55.5 ^‡ 4 % stimulation over basal
CCCCn1nc(C(=O)N[C@@H](Cc2ccccc2)C(N)=O)c2ccccc21	180 ± 25.1 3 % stimulation over basal
CCOC(=O)C(NC(=O)c1nn(CCCCCF)c2ccccc12)C(C)(C)C (stereo not drawn)	387 ± 69.0 ^† 3 % stimulation over basal

Ask | For the compound shown here, COC(=O)[C@@H](NC(=O)c1cn(CCCCCF)c2ccccc12)C(C)C , give the reported [35S]GTPγS Turnover CB1 Emax.
Reply | 295 ± 21.2 ^† 3 % stimulation over basal

Ask | For the compound shown here, COC(=O)[C@@H](NC(=O)c1cn(CCCCCF)c2ccccc12)C(C)(C)C , give the reported [35S]GTPγS Turnover CB1 Emax.
Reply | 380 ± 27.4 ^^ 3 % stimulation over basal

Ask | For the compound shown here, COC(=O)C(NC(=O)c1cn(Cc2ccc(F)cc2)c2ccccc12)C(C)C (stereo not drawn) , give the reported [35S]GTPγS Turnover CB1 Emax.
Reply | 278 ± 29.3 ^† 3 % stimulation over basal

Ask | For the compound shown here, CC1(C)C(C(=O)c2cn(Cc3ccc(F)cc3)c3ccccc23)C1(C)C , give the reported [35S]GTPγS Turnover CB1 Emax.
Reply | 218 ± 31.5 4 % stimulation over basal

###

# assayed-target: UniProt P34972
# run-description: [3H]CP55,940 competition binding at hCB2 in HEK293 cell membranes
# experimental-setup: CB2 pKi, [3H]CP55,940 displacement, pKi ± SEM
endpoint: Ki
The answer consists of two parts: a number and, after it, its unit.

Ask | For UniProt P34972, provide Ki of CC1(C)C(C(=O)c2cn(Cc3ccc(F)cc3)c3ccccc23)C1(C)C [FUB-144] please.
Reply | 1.17 nM

###

# assayed-target: UniProt:P34972
# run-description: [3H]CP55,940 competition binding at hCB2 in HEK293 cell membranes
# experimental-setup: CB2 Ki, [3H]CP55,940 displacement, value in parenthesis
endpoint: log10(Ki) (log10 of the value in nM)
Quick note: numbers are log10 of Ki, with nM as the unit.

molecule	assayed-target	log10(Ki)
CCOC(=O)C(NC(=O)c1nn(CCCCCF)c2ccccc12)C(C)(C)C (centres unmarked)	UniProt:P34972	-0.51
CCCCn1nc(C(=O)N[C@@H](Cc2ccccc2)C(N)=O)c2ccccc21	UniProt:P34972	0.97
COC(=O)C(NC(=O)c1cn(Cc2ccc(F)cc2)c2ccccc12)C(C)C (centres unmarked)	UniProt:P34972	1.35

Ask | For the molecule shown here, COC(=O)[C@@H](NC(=O)c1cn(CCCCCF)c2ccccc12)C(C)C , give the reported log10(Ki).
Reply | 0.53

Ask | For the molecule shown here, C=CCCCn1nc(C(=O)NC(C(=O)OC)C(C)(C)C)c2ccccc21 (centres unmarked) , give the reported log10(Ki).
Reply | -0.67

Ask | For the molecule shown here, COC(=O)[C@@H](NC(=O)c1cn(CCCCCF)c2ccccc12)C(C)(C)C , give the reported log10(Ki).
Reply | -0.36

Ask | For the molecule shown here, C=CCCCn1cc(C(=O)NC(C(=O)OC)C(C)C)c2ccccc21 (centres unmarked) , give the reported log10(Ki).
Reply | 1.19

Ask | For the molecule shown here, CC1(C)C(C(=O)c2cn(Cc3ccc(F)cc3)c3ccccc23)C1(C)C , give the reported log10(Ki).
Reply | 0.08

Data origin: paper PMC9837865
